# protocol_text: Human HepG2 cell viability assay in 384 well format
# Format: toxicity, cell-based
# Design: dose 125 nL, time 70.5 hour; concentration not given beside the values
# test_settings: HepG2 cells, read-out: Inhibition
measurement_type: cytotoxicity at 70.5 h (%)
Only the number, expressed in %, is required.

In [3]: df
Out[3]:
                         molecule  result_units  endpoint_value
0  O=C(c1ccccc1)N(CC1CC1)c1cccnc1             %           -1.58

**Q:** Using the record for Cc1ccc(OCC(O)CN2CCC(Cn3cccn3)CC2)cc1 (stereo unspecified) , state its measured cytotoxicity at 70.5 h.
**A:** -1.48

**Q:** // fetch cytotoxicity at 70.5 h given entry CN(CCC(F)(F)F)C(=O)[C@H]1CSCN1C(=O)OC(C)(C)C
**A:** -1.73

**Q:** Return cytotoxicity at 70.5 h (reported value) for this molecule: Cc1nnc([C@@]23CCO[C@@H]2CCN(S(=O)(=O)c2ccccc2)C3)o1
**A:** -7.57

**Q:** Give reported cytotoxicity at 70.5 h value for c1cnc(Nc2cncc(C3CCCN(c4ncccn4)C3)n2)nc1 (stereo unspecified)
**A:** -7.66

**Q:** Using the record for CCC1CN(C(=O)CN2CCN(c3nccc(OC)n3)CC2)CCO1 (stereo unspecified) , state its measured cytotoxicity at 70.5 h.
**A:** -12.3

---

# protocol_text: Human HepG2 cell viability assay in 384 well format
# Type: toxicity, cell-based
# Parameters: dose 125 nL, time 70.5 hour; concentration not given beside the values
# test_settings: HepG2 cells, read-out: Inhibition
measurement_type: cytotoxicity at 70.5 h (%)
The reply should contain only the number, in %.

Some solved cases for reference:
>>> print(df.to_string())
                                   compound        measurement_type  endpoint_value
0  Cc1cc(C(=O)N2CCCC(O)(CN3CCCC3)C2)ccc1Cl (centres undefined)  cytotoxicity at 70.5 h            1.99
1              CCC(CC)Cn1ncc(N2CCOCC2)cc1=O  cytotoxicity at 70.5 h           -1.42
2         COCCOC(=O)N1CCC(c2nccn2CC2CC2)CC1  cytotoxicity at 70.5 h           -4.36
3        O=C(c1ccc2nccn2c1)N(CCO)Cc1ccccc1F  cytotoxicity at 70.5 h            3.35
4  COCCN1CCC2(CC1)CC(NC(=O)C(C)C)c1ccccc1O2 (centres undefined)  cytotoxicity at 70.5 h           -4.05
5     O=C(CCNc1ncccn1)NCCc1ccn(-c2ccccc2)n1  cytotoxicity at 70.5 h              22
6  CC(C(=O)Nc1ccc(Cl)cn1)n1ccc(C(F)(F)F)n1 (centres undefined)  cytotoxicity at 70.5 h            1.33
7       CCCNC(=O)NC(=O)CNc1c(F)cccc1N1CCCC1  cytotoxicity at 70.5 h           -17.8
8  O=C(c1ccncc1)N1CCCC(C2=Nc3ccccc3S(=O)(=O)N2)C1 (centres undefined)  cytotoxicity at 70.5 h           -3.07
9  O=C(c1ccc(-n2ccnc2)cc1)N1CCCC(n2ccnc2)C1 (centres undefined)  cytotoxicity at 70.5 h           -6.23

**Q:** For the compound CC(C)CNC(=O)c1ccc2nnc(C3CCN(S(C)(=O)=O)C3)n2c1 (centres undefined) , give its reported cytotoxicity at 70.5 h.
**A:** -19.7

**Q:** Query cytotoxicity at 70.5 h for Cc1ccc(C)c(-n2nnnc2SCN2CCCCC2=O)c1
**A:** -3.06

**Q:** Write down cytotoxicity at 70.5 h measured for item O=C(NCc1cccnc1)C1=NOC2(CCN(S(=O)(=O)C3CC3)C2)C1 (centres undefined)
**A:** -10.8

**Q:** Entry CCCNCc1cn(C)nc1-c1cccnc1 needs its cytotoxicity at 70.5 h filled in; supply it.
**A:** -7.26

**Q:** Entry O=C(NCc1cncc2c1CCN(Cc1cccs1)C2)C1CC1 needs its cytotoxicity at 70.5 h filled in; supply it.
**A:** -13.8

**Q:** Specify reported cytotoxicity at 70.5 h for the compound shown: CC(Cn1ccnc1)NC(=O)NCCc1ccc(Cl)s1 (centres undefined)
**A:** -4.32

**Q:** Look up and report measured cytotoxicity at 70.5 h for this entry: Cc1ccnc(NCCNC(=O)CCNC(=O)c2ccccc2F)c1
**A:** 1.01

**Q:** Note cytotoxicity at 70.5 h for the compound shown: Cc1cc(C2CCCN2CC(=O)N(CCC#N)c2ccccc2F)on1 (centres undefined)
**A:** -12.2

**Q:** Give the reported value of cytotoxicity at 70.5 h for this record: CCOCC1CN(C(=O)c2cnccn2)Cc2cnn(CC3CC3)c21 (centres undefined)
**A:** -10.4

**Q:** Note down cytotoxicity at 70.5 h recorded for CC(C)c1cc(C(=O)N2CCCC3(CCNC3)C2)no1 (centres undefined)
**A:** -3.49

**Q:** Please report the measured cytotoxicity at 70.5 h for Cc1ccoc1C(=O)N1C[C@H](OCC2CC2)[C@H]2OCCC[C@H]21
**A:** -0.347

**Q:** Answer with the recorded cytotoxicity at 70.5 h for the compound listed here: CC(C)CC(=O)N1CCC(Nc2nc(O)cc(-c3ccsc3)n2)CC1
**A:** 11.2

**Q:** // fetch cytotoxicity at 70.5 h given entry CCc1nc(CN2CCCC(NCCn3cncn3)C2)no1 (centres undefined)
**A:** -8.1

**Q:** Complete the entry with cytotoxicity at 70.5 h for O=S(=O)(N1CCCC1)N1CCN(CC2CCCO2)CC1 (centres undefined)
**A:** -3.59

---

# protocol_text: Human HepG2 cell viability assay in 384 well format
# Type: toxicity, cell-based
# Parameters: dose 125 nL, time 70.5 hour; concentration not given beside the values
# test_settings: HepG2 cells, read-out: Inhibition
measurement_type: cytotoxicity at 70.5 h

Answered examples (4):
In [3]: df
Out[3]:
                                   molecule  endpoint_value
0  CCN1C[C@@H]2CN(C(=O)C3CC=CC3)C[C@@H]2C1=O             28%
1    CCN1CCN(C(=O)CCC2CCN(C(=O)CCSC)CC2)CC1           22.6%
2       NC(=O)COc1ccc(CNCc2cc(F)cc(F)c2)cc1          -8.73%
3  CC1CN(CCC(=O)NCCc2cccnc2)Cc2ccccc2O1 (stereo unspecified)           9.39%

**Q:** In one line, give reported cytotoxicity at 70.5 h of the entry CC(C(=O)Nc1sccc1C(N)=O)N(C)CCOc1ccccc1 (stereo unspecified) .
**A:** -20.6%

**Q:** Give the measured cytotoxicity at 70.5 h for O=C(NC1CCS(=O)(=O)C1)N1CCN(c2cnccn2)CC1 (stereo unspecified)
**A:** -7.1%

---

# protocol_text: Human HepG2 cell viability assay in 384 well format
# Type: toxicity, cell-based
# Parameters: dose 125 nL, time 70.5 hour; concentration not given beside the values
# test_settings: HepG2 cells, read-out: Inhibition
Label Satisfied for high-side cytotoxicity at 70.5 h (at or above -10%) and Not satisfied for low-side cytotoxicity at 70.5 h (below it).

>>> df
                                   compound    class_label
0  CNC(=O)c1cccc(NC(=O)Cn2nc(-c3cccs3)oc2=O)c1      Satisfied
1  O=C1CCC2(CCN(S(=O)(=O)c3ccccc3)CC2)N1CC1CC1  Not satisfied
2           NC(=O)CCn1nnc(-c2cc3ccccc3o2)n1  Not satisfied
3  Cc1ccc(CN2CCn3c(CNC(=O)c4cccn4C)cnc3C2)s1  Not satisfied
4  CCc1nc(N)sc1C(=O)N1CCCC(CCc2ccccc2C)C1 (stereo unspecified)      Satisfied
5         O=C1CN(Cc2nnc(-c3ccccc3Br)o2)CCN1      Satisfied

**Q:** Assess whether reported cytotoxicity at 70.5 h for Cc1ccc(S(=O)(=O)NCCOc2ccc3nnc(C)n3n2)s1 sits at -10% or higher.
**A:** Not satisfied

**Q:** In plain terms: is recorded cytotoxicity at 70.5 h at least -10% for CC(C)Cc1noc(CN(C)c2cc(N(C)C)ncn2)n1 ?
**A:** Satisfied

**Q:** Could you tell me if the measured cytotoxicity at 70.5 h of CN(C)C(=O)N1CC2(CCNCC2)c2cc(Cl)ccc21 reaches -10% or more?
**A:** Satisfied

**Q:** Does the compound CCOCC1CN(S(=O)(=O)N(C)C)Cc2cnn(CC3CC3)c21 (stereo unspecified) have recorded cytotoxicity at 70.5 h that is -10% or more?
**A:** Satisfied

Values were extracted from ChEMBL document CHEMBL3507680.
